# credit: PubChem BioAssay AID1159580

Assay: chemical genetic growth profiling, strain panel (AID 1159580);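 further: tested at 20 µM; growth read once vehicle control cultures reached saturation at 30 °C; 1 = growth at the plate median or of vehicle wells; lower values mean less growth of the strain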
Conditions: S. cerevisiae deletion strains, growth OD, locus YOR316C, strain cot1, stronger effect = lower value
The whole screen tested about 5,500 compounds, of which about 2,000 (36%) were called active. Roughly 18% stayed inconclusive and do not appear here. The list shows a part of the results.
measured_attribute: normalized growth
Please reply with the number alone, leaving off any unit.

Request the reported normalized growth associated with C[C@]12CCC3C(CC[C@]4(O)C[C@@H](O)CC[C@]34C=O)[C@@]1(O)CCC2C1=CC(=O)OC1 (stereo partly drawn)
0.982

Field request: normalized growth | item: `CC[C@@]1(O)C(=O)OCc2c1cc1n(c2=O)Cc2cc3ccccc3nc2-1`
0.942

normalized growth lookup needed for `NCCCCN` , thanks.
1

Need normalized growth of `NC(=O)c1ccc([N+](=O)[O-])cc1Cl` , thanks.
0.962

What value of normalized growth has been reported for the following compound? CO[C@H]1[C@H](O)[C@@H](O[C@H]2CC[C@]3(C=O)C4CC[C@]5(C)[C@@H](C6=CC(=O)OC6)CC[C@]5(O)C4CC[C@@H]3C2)O[C@@H](C)[C@@H]1O (stereo partly drawn)
0.985

normalized growth for Cc1ccccc1N1C(=O)c2cc(S(N)(=O)=O)c(Cl)cc2NC1C (stereo not drawn) ?
0.983

Next:
What does the data say about its normalized growth? Entry: C[C@@H]1O[C@@H](O[C@H]2CC[C@]3(C=O)C4CC[C@]5(C)[C@@H](C6=CC(=O)OC6)CC[C@]5(O)C4CC[C@]3(O)C2)[C@H](O)[C@H](O)[C@H]1O (stereo partly drawn)
0.991

Query (compound): `CN(C)CC[C@H](c1ccc(Cl)cc1)c1ccccn1` ; field requested: normalized growth
0.995

Quick one: normalized growth of C[C@H]1OC(O[C@H]2[C@@H](O)CC(O[C@H]3[C@@H](O)C[C@H](O[C@H]4CC[C@]5(C)C6CC[C@]7(C)[C@@H](C8=CC(=O)OC8)[C@@H](O)C[C@]7(O)[C@@H]6CC[C@@H]5C4)O[C@@H]3C)O[C@@H]2C)C[C@H](O)C1O (stereo partly drawn) ?
0.994

Name the reported normalized growth value associated with the compound `C[C@]12CCC(=O)C=C1CCc1ccc(O)cc12`
0.99

I would be grateful if you could share the reported normalized growth for `NC(=O)c1cc([N+](=O)[O-])cc([N+](=O)[O-])c1` .
0.995

Quick one: normalized growth of CC(C)=CC1C(CO)C1(C)C (stereo not drawn) ?
0.991

# input compound: `Cc1c(C(N)=O)cc([N+](=O)[O-])cc1[N+](=O)[O-]` ; wanted: its normalized growth
0.965

What value of measured normalized growth is listed for `CCCc1nn(C)c2c(=O)[nH]c(-c3cc(S(=O)(=O)N4CCN(C)CC4)ccc3OCC)nc12` ?
0.991

Given the entry C[C@]12CC[C@H](O)C[C@H]1CCC1C2CC[C@]2(C)[C@@H](C3=CC(=O)OC3)[C@@H](O)C[C@]12O (stereo partly drawn) , report its measured normalized growth.
1

Reported normalized growth for CC1Cc2ccccc2N1NC(=O)c1ccc(Cl)c(S(N)(=O)=O)c1 (stereo not drawn) : what is it?
0.994

What normalized growth value was documented for this compound, CC12CCC3C(CCC4(O)CC(O)CCC34/C=N/NC(N)=O)C1(O)CCC2C1=CC(=O)OC1 (stereo not drawn) ?
0.987

Endpoint output: normalized growth of CC(=O)OC1CC[C@@]2(C)C(CCC3C2CC[C@]2(C)C(C4=CC(=O)OC4)C(OC(C)=O)CC32O)C1 (stereo partly drawn) . Value?
1.02
